The reported measurements were obtained from paper PMC7531004.

- Settings: cell viability/%
Where a SMILES comes first, the peptide text is derived from it. [ ]: non-standard residue; d: D form. The star is where a group is joined. NHCH2CH2OH = OCCN*; For = O=C*
Hi there, I'd appreciate the recorded viability for every entry that follows.

Compound	Value Kind	Observed Value
CC(C)C[C@@H](NC(=O)[C@H](C)NC(=O)[C@H](NC(=O)[C@H](C)NC(=O)CNC(=O)[C@@H](NC=O)C(C)C)[C@H](C)O)C(=O)N[C@H](C(=O)N[C@@H](C(=O)N[C@@H](Cc1c[nH]c2ccccc12)C(=O)N[C@@H](C(=O)N[C@@H](Cc1c[nH]c2ccccc12)C(=O)N[C@H](CC(C)C)C(=O)N[C@@H](Cc1c[nH]c2ccccc12)C(=O)N[C@H](CC(C)C)C(=O)N[C@@H](Cc1c[nH]c2ccccc12)C(=O)NCCO)[C@H](C)O)C(C)C)C(C)C [compound 6896] (For-VGA[dT]A[dL]V[dV]W[dT]W[dL]W[dL]W-NHCH2CH2OH)	viability	100%

Challenge: So what's the measured viability for this one? CC(C)C[C@@H](NC(=O)[C@H](C)NC(=O)CNC(=O)[C@@H](NC=O)C(C)C)C(=O)N[C@@H](C)C(=O)N[C@@H](C(=O)N[C@H](C(=O)N[C@H](CC(C)C)C(=O)N[C@@H](Cc1c[nH]c2ccccc12)C(=O)N[C@H](CC(C)C)C(=O)N[C@@H](Cc1c[nH]c2ccccc12)C(=O)N[C@H](CC(C)C)C(=O)N[C@@H](Cc1c[nH]c2ccccc12)C(=O)N[C@H](CC(C)C)C(=O)N[C@@H](Cc1c[nH]c2ccccc12)C(=O)NCCO)C(C)C)C(C)C [compound 8397] (For-VGA[dL]A[dV]V[dL]W[dL]W[dL]W[dL]W-NHCH2CH2OH)
Response given: 0%
